- assayProcedure: in vitro
- Set-up: species or system HB2, HEK293
- conditionContext: human, ccd841 cells
Entries and their viability at 48 h, 10 µM values follow.
The response must be a number in % with no trailing unit.

compound	viability at 48 h, 10 µM / %
CC1CCCCC1N(C)C(=O)CCl (centres unmarked) [PCM-0103026]	57
O=C(CCl)Nc1nc(-c2cccs2)cs1 [PCM-0102784]	84.9
Cc1c(Cl)cnc(NC(=O)CCl)c1Cl [PCM-0102657]	98.2

Prompt line: Fill blank: measured viability at 48 h, 10 µM of the compound C=CC(=O)N1CCc2sccc2C1c1cccs1 (centres unmarked) [PCM-0102640] is ____.
Response line: 115

Prompt line: Find the recorded viability at 48 h, 10 µM belonging to Cc1cc(C)c2nc(NC(=O)CCl)sc2c1 [PCM-0102246] and report it.
Response line: 79.8

Prompt line: Returns the measured viability at 48 h, 10 µM for the input compound. Input: CC(C)n1nccc1NC(=O)CCl.Cl [PCM-0102472]
Response line: 107

Prompt line: Look at this compound and give its reported viability at 48 h, 10 µM. C=CC(=O)NC1(C(=O)N2CCN(C)CC2)CCCC1 [PCM-0103054]
Response line: 109

Prompt line: Find the recorded viability at 48 h, 10 µM belonging to C=CC(=O)NC1CCC(N2CCCS2(=O)=O)CC1 (centres unmarked) [PCM-0102568] and report it.
Response line: 93.8

====

Some molecules, each annotated with its measured OTUB2.
- tgt: OTUB2 (OTUB2A) (Homo sapiens, UniProt Q96DC9)
- Construct: full length residues 1-234, E. coli BL21(DE3)-R3, His tag removed by TEV, construct 27312 Da
- Sequence (Q96DC9 1-234): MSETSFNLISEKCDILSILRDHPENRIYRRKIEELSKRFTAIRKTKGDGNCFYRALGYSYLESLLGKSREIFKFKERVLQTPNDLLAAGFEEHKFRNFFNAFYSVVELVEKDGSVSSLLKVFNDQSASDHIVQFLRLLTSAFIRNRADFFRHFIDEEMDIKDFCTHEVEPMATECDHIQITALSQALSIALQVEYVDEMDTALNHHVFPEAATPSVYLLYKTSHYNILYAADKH
- Parameters: Intact protein LC/MS covalent labelling, fragments in pools of five, 200 uM each, 4 °C
- conditionContext: 24 h, 4 °C, pool of five; 200 µM; covalent

Answered cases to consult:
molecule	OTUB2
O=C(CCl)N1CCN(S(=O)(=O)c2ccc(F)c(Cl)c2)CC1 [PCM-0102343]	0
Cl.O=C(CCl)N1CCN(Cc2ccco2)CC1 [PCM-0103006]	0
Cc1ccccc1C(C)NC(=O)CCl (stereo not shown) [PCM-0102390]	0.26
O=C(CCl)NC(=O)c1cccc([N+](=O)[O-])c1 [PCM-0102460]	0
Cl.O=C(CCl)N1CCN(Cc2ccc(Cl)cc2)CC1 [PCM-0102818]	0.17
O=C(CCl)N1CCCC(C(F)(F)F)C1 (stereo not shown) [PCM-0102676]	0
Cc1cc(C)c(NC(=O)CCl)c(Cl)c1 [PCM-0102994]	0
O=C(CCl)N1CCCC1c1ccsc1 (stereo not shown) [PCM-0102693]	0
O=C(CCl)N1CCC(c2ccccc2)=N1 [PCM-0102150]	0
O=C(CCl)NCc1cccs1 [PCM-0102280]	0.22

Prompt line: OTUB2 lookup needed for O=C(CCl)Nc1cccnc1Cl [PCM-0102274] , thanks.
Response line: 0

Prompt line: Consider the molecule CCN(C(=O)CCl)C1=CCCCC1 [PCM-0103084] and give its measured OTUB2.
Response line: 0

Prompt line: What value of measured OTUB2 is listed for C=CC(=O)NC1CCC(c2nc(C)no2)CC1 (stereo not shown) [PCM-0102521] ?
Response line: 0.35
